Hello, the source for this data is patent EP0595557A1, in case you need it.

# systemUnderTest: Human Polymorphonuclear Leukocyte Elastase (Homo sapiens)
# Construct: Crude extract of human polymorphonuclear leukocytes (PMN) containing elastase activity; from tissue; host or cells: human polymorphonuclear leukocytes (crude extract)
# Sequence (P08246 30-267): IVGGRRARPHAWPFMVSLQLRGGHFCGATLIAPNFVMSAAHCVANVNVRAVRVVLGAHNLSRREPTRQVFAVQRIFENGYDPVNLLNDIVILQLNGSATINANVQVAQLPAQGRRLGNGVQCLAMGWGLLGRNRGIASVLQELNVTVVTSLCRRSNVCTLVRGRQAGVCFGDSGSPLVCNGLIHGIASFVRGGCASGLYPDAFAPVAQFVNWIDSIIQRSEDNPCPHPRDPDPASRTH
# protocolSummary: Enzyme assay for inhibition of human polymorphonuclear leukocyte elastase via hydrolysis of Boc-AAPAN or Boc-AAPVN
# Type: biochemical
# assayConditions: pH 7.5, second order rate constant for inactivation of the enzyme, expressed to the nearest thousand, read-out: Kobs/[I]
measuredProperty: kinact/KI (M⁻¹ s⁻¹)

Here are 3 molecules together with their reported answers.
CCC[C@@H](NC(=O)N1C(=O)C(CC)(CC)[C@@H]1Oc1ccc(C(=O)Nc2ccc(N(C)C)cc2)cc1)c1ccc(C)cc1 [Compound 113] = 2.59e+06
CCC[C@@H](NC(=O)N1C(=O)C(CC)(CC)[C@@H]1Oc1ccc(CC(=O)OC(C)CN(C)C)cc1)c1ccc(C)cc1 (stereo partly shown) [Compound 36] = 1.69e+06
CCC[C@@H](NC(=O)N1C(=O)C(CC)(CC)[C@@H]1Oc1ccc(C(=O)OCC(=O)N2CCC[C@H]2C(=O)O)cc1)c1ccc(C)cc1 (relative stereo) [Compound 9] = 1.57e+06

P. CCC[C@@H](NC(=O)N1C(=O)C(CC)(CC)[C@@H]1Oc1ccc(C(=O)OCCN2CCOCC2)cc1)c1ccc(C)cc1 [Compound 17]
Q. CCC[C@@H](NC(=O)N1C(=O)C(CC)(CC)[C@@H]1Oc1ccc(C(=O)OCCCCN(C)C)cc1)c1ccc(C)cc1 [Compound 18]
R. CCC[C@@H](NC(=O)N1C(=O)C(CC)(CC)[C@@H]1Oc1ccc(C(=O)Nc2cccc(Cl)c2)cc1)c1ccc(C)cc1 [Compound 135]
S. CCC[C@@H](NC(=O)N1C(=O)C(CC)(CC)[C@@H]1Oc1ccc(CC(=O)N(C)CCCN(C)C)cc1)c1ccc(C)cc1 [Compound 56]
Prompt: Arrange the 4 molecules from largest to smallest kinact/KI. Form entry: ranked labels (order as requested).
Response: P, Q, S, R

----------
# systemUnderTest: Human Polymorphonuclear Leukocyte Elastase (Homo sapiens)
# Construct: Crude extract of human polymorphonuclear leukocytes (PMN) containing elastase activity; from tissue; host or cells: human polymorphonuclear leukocytes (crude extract)
# Sequence (P08246 30-267): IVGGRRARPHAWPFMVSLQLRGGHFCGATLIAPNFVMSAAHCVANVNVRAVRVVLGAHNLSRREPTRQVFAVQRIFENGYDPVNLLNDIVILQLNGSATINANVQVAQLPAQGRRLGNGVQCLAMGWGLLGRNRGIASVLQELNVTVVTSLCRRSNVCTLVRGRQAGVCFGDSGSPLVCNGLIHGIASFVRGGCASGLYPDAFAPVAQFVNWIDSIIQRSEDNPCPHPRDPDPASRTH
# protocolSummary: Enzyme assay for inhibition of human polymorphonuclear leukocyte elastase via hydrolysis of Boc-AAPAN or Boc-AAPVN
# Type: biochemical
# assayConditions: pH 7.5, second order rate constant for inactivation of the enzyme, expressed to the nearest thousand, read-out: Kobs/[I]
measuredProperty: kinact/KI (M⁻¹ s⁻¹)

Examples with their reported kinact/KI follow.
CCC[C@@H](NC(=O)N1C(=O)C(CC)(CC)[C@@H]1Oc1ccc(C(=O)OCCN(CC)CC)cc1)c1ccc(C)cc1 = 2.29e+06
CCC[C@@H](NC(=O)N1C(=O)C(CC)(CC)[C@@H]1Oc1ccc(C(=O)N2CCN(CCO)CC2)cc1)c1ccc(C)cc1 [Compound 256a] = 2e+06
CCCCN(CCCC)CCOC(=O)c1ccc(O[C@@H]2N(C(=O)N[C@H](CCC)c3ccc(C)cc3)C(=O)C2(CC)CC)cc1 = 992000
CCC[C@@H](NC(=O)N1C(=O)C(CC)(CC)[C@@H]1Oc1ccc(C(=O)N(C)CCN(C)Cc2ccc(F)cc2)cc1)c1ccc(C)cc1 = 2.14e+06
CCC[C@@H](NC(=O)N1C(=O)C(CC)(CC)[C@@H]1Oc1ccc(C(=O)N(C)CCN(C)CC2CCCCO2)cc1)c1ccc(C)cc1 (stereo partly shown) = 2.94e+06

1. CCC[C@@H](NC(=O)N1C(=O)C(CC)(CC)[C@@H]1Oc1ccc(C(=O)N(C)CCN(CCOC)CCOC)cc1)c1ccc(C)cc1
2. CCC[C@@H](NC(=O)N1C(=O)C(CC)(CC)[C@@H]1Oc1ccc(C(=O)N[C@@H](CCCCN)C(=O)O)cc1)c1ccc(C)cc1
Prompt: Lab note: check whether 1 or 2 shows the higher recorded kinact/KI. State the label of the item chosen.
Response: 1
